Just for reference, ChEMBL document CHEMBL5120772 is where these values come from.

- experimental.parameters: dog, in vivo, po, 10 mg/kg, 72 h
recorded.metric: AUC

AUC measured on COc1cc(OC)c(F)c(COc2cnc(Nc3cnn(CCO)c3)nc2)c1F [ASP-5878] = 39600 ng·h/mL

* * *

- assay.procedure: in vivo
- experimental.parameters: beagle, dog, po, 100 mg/kg
recorded.metric: Tmax at 72 h (h)
Your answer should be a plain number; it is taken to be in h.

Value of measured Tmax at 72 h for the entry COc1cc(OC)c(F)c(COc2cnc(Nc3cnn(CCO)c3)nc2)c1F : 4.5

* * *

- assay.procedure: Intrinsic clearance in human liver microsomes
- experimental.parameters: liver microsomes
recorded.metric: CLint scaled (mL/min/kg)
The reply should contain only the number, in mL/min/kg.

- molecular.string: "COc1cc(Nc2ncc(CCc3c(F)c(OC)cc(OC)c3F)cn2)ccc1N1CCC(N2CCN(C)CC2)CC1"
  display.unit: "mL/min/kg"
  CLint scaled: 171
- molecular.string: "COc1cc(Nc2ncc(CCc3c(F)c(OC)cc(OC)c3F)cn2)ccc1N1CCN(C2CCN(C)CC2)CC1"
  display.unit: "mL/min/kg"
  CLint scaled: 51
- molecular.string: "COc1cc(OC)c(F)c(COc2cnc(Nc3ccc(N4CCC(N5CCN(C)CC5)CC4)c(F)c3)nc2)c1F"
  display.unit: "mL/min/kg"
  CLint scaled: 42
- molecular.string: "COc1cc(OC)c(F)c(COc2cnc(Nc3cnc(N4CCC(N5CCN(C)CC5)CC4)nc3)nc2)c1F"
  display.unit: "mL/min/kg"
  CLint scaled: 39
- molecular.string: "COc1cc(Nc2ncc(OCc3c(F)c(OC)cc(OC)c3F)cn2)cnc1N1CCC(N2CCN(C)CC2)CC1"
  display.unit: "mL/min/kg"
  CLint scaled: 26
- molecular.string: "COc1cc(OC)c(F)c(COc2cnc(Nc3ccc(N4CCC(N5CCN(C)CC5)CC4)nc3)nc2)c1F"
  display.unit: "mL/min/kg"
  CLint scaled: 34
- molecular.string: "COc1cc(Nc2ncc(CCc3c(F)c(OC)cc(OC)c3F)cn2)ccc1N1CCN(C)CC1"
  display.unit: "mL/min/kg"
  CLint scaled: 101
- molecular.string: "COc1cc(Nc2ncc(OCc3c(F)c(OC)cc(OC)c3F)cn2)ccc1N1CCC(N2CCN(C)CC2)CC1"
  display.unit: "mL/min/kg"
  CLint scaled: 40
- molecular.string: "COc1cc(Nc2ncc(OCc3c(F)c(OC)cc(OC)c3F)cn2)ccc1N1CCN(C)CC1"
  display.unit: "mL/min/kg"
  CLint scaled: 39
- molecular.string: "COc1cc(OC)c(F)c(COc2cnc(Nc3ccc(N4CCC(N5CCN(C)CC5)CC4)c(C)c3)nc2)c1F"
  display.unit: "mL/min/kg"
  CLint scaled: 58

Now consider a different compound.
The reported CLint scaled of the compound COc1cc(Nc2ncc(CCc3c(F)c(OC)cc(OC)c3F)cn2)ccc1N1CCC(N(C)C2CCN(C)CC2)CC1.Cl.Cl.Cl.Cl was 48
